- protocol-description: yeast display, Sf9 membrane polyspecificity reagent, FACS + sequencing; frameworks hold sequencing errors

{"sequence-code": "QDQLVDSGGGLVQAGGSLRLICAASGRIFHCYAMGWYRQAPGKERELVAAIRASGGRTYYADSVKGRFTISRDNAKNTVYVQMNSLKPEDPAVYYCGADSVKYGGDYWGQGTQVTVSS", "polyreactivity (PSR sort gate)": "high polyreactivity"}
{"sequence-code": "QVQLVESGGGLVQAGGRLRLSCAASGSTFATYAMGWYRQAPGKERELVAVISRSGGSTYYADSVKGRFTISRDNAKNTVYLQMNCLKPEDTAVYYCAARPRGKYDYRGQGTQVTVSS", "polyreactivity (PSR sort gate)": "high polyreactivity"}

----------
- protocol-description: yeast display, Sf9 membrane polyspecificity reagent, FACS + sequencing; frameworks hold sequencing errors
quantity: polyreactivity (PSR sort gate)

{"sequence-code": "QVQLVESGGGLVQAGGSLRLSCAASGRIFPTNAMGWYRQAPGKERELVASITRSGSTYYADSVKGRFTISRDNAKNTVYLQMNSLKPEDTAVYYCAKRYRYSVGWPVKNSAFGYWGQGTQVTVSS", "measured-value": "low polyreactivity"}
{"sequence-code": "QVQLVESGGGLVQAGGRLRLSCAASGLTFKSYTMGLYRQAPGKERELVATISGSGTRTYYADSVKGRYTISRDNAKNTVFLQMNSLKPEDTAVYYCARVILYNNYFRYSGYRYDYWGQGTQGTVSS", "measured-value": "high polyreactivity"}
{"sequence-code": "QVQLVESGGGLVQAGGSLRLSCAASGFTSTAYAMGWYRQAPGKERELVAVISSGSSTHYADSVKGRFTISRDNAKNTVYLQMNSLKPEDTAVYYCAARIRTRYFTGFYYWGQGTQVTVSS", "measured-value": "high polyreactivity"}
{"sequence-code": "QVQLVESGGGLVQAGGSLRLSCAASGIIFSAYAMGWYRQAPGKERELVAAISSGGSTNYADSVKGRFTISRDNAKNTVYLQMNSLKPEDTAVYYCNAGERDVPNSYVAYREDYWGQGTQVTVSS", "measured-value": "low polyreactivity"}
{"sequence-code": "QVQLVESGGGLVQAGGSLRLSCAASGIIFYRYAMGWYRQAPGKERELVATIRRSDGSTYYADSVKGRFTISRDNAKNTVYLQMKSLKPVDTAVYYCAARRPYSSGYDYWGQGSQVTVSS", "measured-value": "high polyreactivity"}

----------
- protocol-description: yeast display, Sf9 membrane polyspecificity reagent, FACS + sequencing; frameworks hold sequencing errors

{"sequence-code": "QVQLVESGGGLVQAGGSLRLSCAASGSIFVNYAMGWYRQAPGKERELVAAISTGGGRTFYADSVKGRFTISRDNAKNTVYLQMNSLKPEDTAVYYCNNLGRTEYDYWGQGTQVTVSS", "polyreactivity (PSR sort gate)": "high polyreactivity"}
{"sequence-code": "QVQLVESGGGLVQAGGTLRFSCAASGFTFYVYAMGWYRQAPGKERELVAAISKSGGSTYYADSVKGRFTISRDNAKNTVYLQMNSLKPEDTAVYYCAVYDKRSGYRGGHRYNSWGQGTQVTVSS", "polyreactivity (PSR sort gate)": "high polyreactivity"}
{"sequence-code": "QVQLVESGGGLVQAGGSLRLSCAASGSIFWYNAMGWYRQAAGKERELVAAIRWRGGSTYYADSVKGRFTISRDNEKNTVYLQMNSLKPEDTAVYYFAAQVYVSQLYTSYYYWGQGTQVTVSS", "polyreactivity (PSR sort gate)": "high polyreactivity"}
{"sequence-code": "QVQLVESGGGLVQAGGSLRLSCAASGLILPYYTMGWYRQAPGTERELVAAITWGGDSTYYADSVKGRFTISRDNAKNTVYLQMNRLKPEDTAVFYCAAYPQRRFYWQYRYDYWGQGTQVTGSS", "polyreactivity (PSR sort gate)": "high polyreactivity"}
